Would you kindly list protein stability index for each of these sequences?
# test protocol: protein stability index of a GFP-peptide fusion (GPS, HEK-293T) (PSI 1-6); higher = more stable;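 further: 24-mer peptide tiles fused after GFP, lentivirally expressed, FACS-sorted into six equal bins by GFP/DsRed ratio, decoded by Illumina sequencing, PSI is the read-weighted mean bin number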
# protocol conditions: treatment: MLN4924 1 uM, 8 h; c terminus: a fixed tail appended
Give bare numbers.

The cases that follow already have their protein stability index on record.
record sequence | meas value
IRNRGYNLIYRSTRHLKRLALMIQ [TMEM192] | 2.97
LLEEEEKQWGPLEREPVRGQCLDS [RTN2] | 5.26
QLGTLAGSKYYNVEAMYCYLRCIQ [SMG5] | 2.3
CITEDGRTVAVGDIVWGKIHGFPW [PWWP2B] | 2.28
NRASLYSFPEPEAAQPMTKKRKVD [PRAME] | 4.74
KDWLEGTVRGATGIFPLSFVKILK [NCF4] | 2.38
SVPDVPKSMAWCENSICVGFKRDY [VPS39] | 2.94
DSLEKTDDDKYKITLKYPHYFPVM [NLN] | 2.7
PALDIFGDLFESTPEVAAAPKPDA [SNAP91] | 4.67
ICQGDGSSCTHVTGNYRKGNAHLG [ADAMTSL2] | 3.92

Dear reader, for each entry below, please note its protein stability index.
1. RSSGSEGTPADTGDLSPGHGASAP [PWWP2B]
2. YVKVLHHMVKISGGPHISYPPLHE [MAGEA3]
3. SHEDVCVFKCSVSRETECSRVGKQ [CARM1]

[5.35, 2.58, 4.12]

----------
# test protocol: protein stability index of a GFP-peptide fusion (GPS, HEK-293T) (PSI 1-6); higher = more stable
# protocol conditions: treatment: DMSO; c terminus: a fixed tail appended
Entry flag: MET if protein stability index reaches 4; NOT MET if it does not.

Before answering, review these 3 worked examples.
record sequence | class label
FISQVTVLKYFSHYMEENLMDGGD [PLK2] | NOT MET
YRTWNVVVHDWLYSYVYQDGLRLL [SOAT2] | NOT MET
SAMAENILAAACESETRKAAKRMR [NOL4L] | MET

Answer whether protein stability index of EPLEPEVKYVGNMHGNEALGRELM [CPN1] is greater than or equal to 4.
MET

Item: QKILCAKAENARLVVNIDNAKLAS [KRT34]
NOT MET

Please do the same for QRKKWVDLAWMITFYVRFFLTYVP [FADS1] as well.
NOT MET

----------
# test protocol: protein stability index of a GFP-peptide fusion (GPS, HEK-293T) (PSI 1-6); higher = more stable
# protocol conditions: treatment: DMSO; c terminus: a fixed tail appended
Assign protein stability index to each entry below.
Give bare numbers.

Use these answered entries as a reference point.
record sequence | protein stability index
NQNLSNRPSFNRTPIPWLSSGEPV [MYOZ1] | 3.43
PTHTPRPADFSLGSLPGPGQTSGA [VENTX] | 4.44
YVKVLHHMVKISGGPHISYPPLHE [MAGEA3] | 2.33
EDLQSIIYKLEEHEEFFPAFQAFT [CEP70] | 2.38
SINVLLMMHGLKPLSLVKRTDLKD [CEP70] | 2.6

Go through the list and state protein stability index for each entry.
1. RGFQEENKALWENNKLKLQQKLVI [CBY2]
2. IDKEIELHRILHHKHVVQFYHYFE [PLK2]

[3, 2.12]
